quantityKind: pKa
Just the number, please, no unit attached.

In the examples that follow, each entry is paired with its recorded pKa.
{"compound": "COc1cc(NS(C)(=O)=O)ccc1Nc1c2ccccc2nc2cc(C)ccc12", "pKa": 7.7}
{"compound": "Cc1nc(N)ncc1CNC(=O)Cn1c(C)cnc(NCCc2ccccc2)c1=O", "pKa": 4.2}
{"compound": "Cn1ccnc1F", "pKa": 2.3}
{"compound": "CCC12CCC(=O)C=C1c1c(cc(OCC(=O)O)c(Cl)c1Cl)C2 (stereo not drawn)", "pKa": 3.6}

// switching to the query compound
input: Entry under review: CCCCOC(=O)c1ccc(OS(N)(=O)=O)cc1 . Reported pKa?
output: 8.07

* * *

Decision: pKa >= 8 yields Met, all other cases yield Not met.

{"compound": "CSc1ccc2c(c1)N(CCC1CCCCN1C)c1ccccc1S2 (centres undefined)", "labelValue": "Met"}
{"compound": "CS(=O)(=O)Nc1ccc(Nc2c3ccccc3nc3cc([N+](=O)[O-])ccc23)cc1", "labelValue": "Not met"}
{"compound": "COc1cc(NS(C)(=O)=O)ccc1Nc1c2ccccc2nc2cc(NC(C)=O)ccc12", "labelValue": "Not met"}
{"compound": "CS(=O)(=O)Nc1ccc(Nc2c3ccccc3nc3cc(C#N)ccc23)cc1", "labelValue": "Not met"}
{"compound": "CC(C)NCC(O)COc1ccc(CCNC(=O)NC(C)C)cc1 (centres undefined)", "labelValue": "Met"}

input: Check the entry CC(C)c1ccccc1Nc1c2ccccc2nc2ccccc12 : does pKa equal or exceed 8?
output: Not met

input: Param item: Clc1ccc(Cl)c(N=C2NCCN2)c1
output: Met

input: Param item: CSc1nccn1C
output: Not met

input: Param item: Clc1ncc[nH]1
output: Not met

input: Param item: Cc1cnc(NCCc2ccccc2)c(=O)n1CC(=O)NC[C@@H]1CNC(N)=N[C@@H]1C
output: Met

input: Param item: Cc1cnc(NCC2(c3ccc(Cl)cc3)CCC2)c(=O)n1CC(=O)NCc1cnc(N)cn1
output: Not met

input: Param item: CCCCCCOC(=O)NCCCC(C)Nc1cc(OC)cc2cccnc12 (centres undefined)
output: Met

* * *

Each entry falls in a class defined on pKa; the bands are b0 (below 7), b1 (7 to below 8), b2 (8 or more)

Would you please look over these solved cases?
{"molecule": "CCCCN", "labelValue": "b2"}
{"molecule": "CC(=O)Nc1ccccc1Nc1c2ccccc2nc2ccccc12", "labelValue": "b1"}
{"molecule": "Nc1ncnc2c1ncn2[C@@H]1O[C@H](COS(=O)(=O)NC(=O)c2ccccc2)[C@@H](O)[C@H]1O", "labelValue": "b0"}

input: Sort c1cncc(Nc2c3ccccc3nc3ccccc23)c1 into one of the categories.
output: b0

input: Param item: COc1cc(NS(C)(=O)=O)ccc1Nc1c2ccccc2nc2cc(C(C)C)ccc12
output: b1

input: Param item: CC(CN(C)C)CN1c2ccccc2CCc2ccccc21 (stereo not drawn)
output: b2

input: Param item: Cc1ccc(Nc2c3ccccc3nc3ccccc23)cc1
output: b1

input: Param item: CN(C)C(=O)Oc1cccc([N+](C)(C)C)c1
output: b2

input: Param item: NC(=O)c1ccc(Nc2c3ccccc3nc3ccccc23)cc1
output: b0

* * *

Form field: pKa (one value per entry).
Just the number, please, no unit attached.

{"compound": "Cn1ccnc1N", "quantityKind": "pKa", "observedResult": 8.54}

// switching to the query compound
input: Entry under review: N[C@@H]1C[C@]1(F)c1ccccc1 . Reported pKa?
output: 6.98

Where these numbers come from: the pKa sets of Baltruschat and Czodrowski (2020)
